system: human hepatocytes; experiment: Hepatocytes stability assay (human hepatocytes); type: in vitro ADME; settings: hepatic clearance divided by liver blood flow, fu assumed unity
Measure: Extraction Ratio (ER)

In the examples that follow, each entry is paired with its recorded Extraction Ratio (ER).
1) CS(=O)(=O)N[C@H]1CCN(c2ncccc2F)CC1COC1CCC(c2ccccc2)CC1 (stereo partly drawn) [Compound 26] | 0.89
2) CS(=O)(=O)N[C@H]1CCN(c2cccnn2)CC1COC1CCC(c2ccccc2)CC1 (stereo partly drawn) [Compound 22] | 0.89
3) Cc1cccc(C2CCC(OCC3CN(c4ccccn4)CC[C@@H]3NS(C)(=O)=O)CC2)c1C (stereo partly drawn) [Compound 17] | 0.83
4) CS(=O)(=O)N[C@H]1CCN(c2ccccn2)CC1COC1CCC(c2cccnn2)CC1 (stereo partly drawn) [Compound 14] | 0.77
5) CS(=O)(=O)N[C@H]1CCN(c2ncccc2O)CC1COC1CCC(c2ccccc2)CC1 (stereo partly drawn) [Compound 27] | 0.92

Which value of Extraction Ratio (ER) has been reported for COC(=O)N1CCC[C@H](NS(C)(=O)=O)[C@@H]1CO[C@H]1CC[C@@H](c2ccccc2)CC1 [Reference Compound A, reference compound] in the records?
0.92

Requested field: Extraction Ratio (ER). Item: CS(=O)(=O)N[C@H]1CCN(c2nccc3ocnc23)CC1COC1CCC(c2ccccc2)CC1 (stereo partly drawn) [Compound 45]
0.94

Reported Extraction Ratio (ER), molecule CS(=O)(=O)N[C@H]1CCN(c2ccccn2)CC1COC1CCC(c2cncnc2)CC1 (stereo partly drawn) [Compound 12] : ____
0.84

GET /values?readout=Extraction Ratio (ER)&item= CS(=O)(=O)N[C@H]1CCN(c2ccccn2)CC1COC1CCC(c2ccncn2)CC1 (stereo partly drawn) [Compound 8]
0.82

---

Reported efflux ratio at 2 h, 3 μM values for the following compounds.
system: MDR1; test: MDCK-MDR1 permeability assay; format: in vitro ADME; conditions: dog, Papp (B→A) divided by Papp (A→B), 3 μM test compound, read-out: Efflux ratio (ER)

Recorded efflux ratio at 2 h, 3 μM, per entry:
1. CS(=O)(=O)N[C@H]1CCN(Cc2ccccc2)CC1COC1CCC(c2ccccc2)CC1 (stereo partly shown) [Compound 36] | > 12
2. CS(=O)(=O)N[C@H]1CCN(c2ccccn2)CC1COC1CCC(c2ccc(F)cc2)CC1 (stereo partly shown) [Compound 7] | > 4.3
3. Cc1cc(C)cc(C2CCC(OCC3CN(c4ccccn4)CC[C@@H]3NS(C)(=O)=O)CC2)c1 (stereo partly shown) [Compound 18] | > 2.6

Query (compound): CS(=O)(=O)N[C@H]1CCN(c2ccccn2)CC1COC1CCC(c2cccnn2)CC1 (stereo partly shown) [Compound 14] ; field requested: efflux ratio at 2 h, 3 μM
> 56

---

system: human hepatocytes; assay: Hepatocytes stability assay (human hepatocytes); type: in vitro ADME; details: hepatic clearance divided by liver blood flow, fu assumed unity
Measure: Extraction Ratio (ER)

1. CS(=O)(=O)N[C@H]1CCN(c2ccccn2)CC1COC1CCC(c2ccccc2O)CC1 (some centres unmarked) | 0.87
2. Cc1cccc(C2CCC(OCC3CN(c4ccccn4)CC[C@@H]3NS(C)(=O)=O)CC2)c1 (some centres unmarked) | 0.87
3. CS(=O)(=O)N[C@H]1CCN(c2ccccn2)CC1COC1CCC(c2ccccn2)CC1 (some centres unmarked) | 0.89
4. Cc1ccccc1C1CCC(OCC2CN(c3ccccn3)CC[C@@H]2NS(C)(=O)=O)CC1 (some centres unmarked) | 0.91

Please examine the following record next.
Recorded Extraction Ratio (ER) for CS(=O)(=O)N[C@H]1CCN(c2cc(F)ccn2)CC1COC1CCC(c2ccccc2)CC1 (some centres unmarked) , please?
0.92

---

experiment: Hepatocytes stability assay (human hepatocytes); format: in vitro ADME; details: both sexes, cryopreserved hepatocytes, 1 μM test compound, 1×10^6 cell/mL, read-out: CLint (μL/min/million cells)
The entries below come with measured hepatocyte CLint at 1 μM values attached.
# value in µL/min/1e6 cells; strip the unit string

// known answers, use as guide
1) CS(=O)(=O)N[C@H]1CCN(Cc2ccccc2)CC1COC1CCC(c2ccccc2)CC1 (some centres unmarked) | 58
2) CS(=O)(=O)N[C@H]1CCN(c2cccc3ncnn23)CC1COC1CCC(c2ccccc2)CC1 (some centres unmarked) | 102
3) CS(=O)(=O)N[C@H]1CCN(c2ccccn2)CC1COC1CCC(c2cccnn2)CC1 (some centres unmarked) | 22

Using the record for CS(=O)(=O)N[C@H]1CCN(c2cccnn2)CC1COC1CCC(c2ccccc2)CC1 (some centres unmarked) , report its hepatocyte CLint at 1 μM.
56

I am curious: what hepatocyte CLint at 1 μM value has been reported for CS(=O)(=O)N[C@H]1CCN(c2ncccc2C(F)(F)F)CC1COC1CCC(c2ccccc2)CC1 (some centres unmarked) ?
154

---

Below, each entry is listed with its recorded Papp A→B at 2 h, 3 μM.
tested on: MDR1; assay: MDCK-MDR1 permeability assay; type: in vitro ADME; settings: dog, apical to basolateral, 3 μM test compound, 2 hours at 37 degrees C

# count of solved cases: 5
1) Cc1cc(C)cc(C2CCC(OCC3CN(c4ccccn4)CC[C@@H]3NS(C)(=O)=O)CC2)c1 (stereo partly drawn) [Compound 18] | < 1.8 ×10⁻⁶ cm/s
2) Cc1cccc(C2CCC(OCC3CN(c4ccccn4)CC[C@@H]3NS(C)(=O)=O)CC2)c1C (stereo partly drawn) [Compound 17] | < 0.28 ×10⁻⁶ cm/s
3) CS(=O)(=O)N[C@H]1CCN(Cc2ccccc2)CC1COC1CCC(c2ccccc2)CC1 (stereo partly drawn) [Compound 36] | < 0.21 ×10⁻⁶ cm/s
4) CS(=O)(=O)N[C@H]1CCN(c2ccccn2)CC1COC1CCC(c2ccccc2F)CC1 (stereo partly drawn) [Compound 5] | < 0.9 ×10⁻⁶ cm/s
5) CS(=O)(=O)N[C@H]1CCN(c2cccc(F)n2)CC1COC1CCC(c2ccccc2)CC1 (stereo partly drawn) [Compound 23] | < 2 ×10⁻⁶ cm/s

# returns recorded Papp A→B at 2 h, 3 μM (system: MDR1) for C[C@@]1(COC2CCC(c3ccccc3)CC2)CN(c2ccccn2)CC[C@@H]1NS(C)(=O)=O (stereo partly drawn) [Compound 29]
< 0.42 ×10⁻⁶ cm/s

Please provide the recorded Papp A→B at 2 h, 3 μM for CS(=O)(=O)N[C@H]1CCN(c2ccccn2)CC1COC1CCC(c2ccc(F)cc2)CC1 (stereo partly drawn) [Compound 7] , tested on MDR1.
< 1.2 ×10⁻⁶ cm/s

Please tell me: Papp A→B at 2 h, 3 μM of CS(=O)(=O)N[C@H]1CCN(c2ncccc2C(F)(F)F)CC1COC1CCC(c2ccccc2)CC1 (stereo partly drawn) [Compound 28] , system MDR1?
< 1.2 ×10⁻⁶ cm/s

Notebook entry, MDR1 assay: Papp A→B at 2 h, 3 μM of CS(=O)(=O)N[C@H]1CCN(c2ccccn2)CC1COC1CCC(c2cccnn2)CC1 (stereo partly drawn) [Compound 14] = ?
< 0.12 ×10⁻⁶ cm/s
